SYSTEM: Casein kinase I isoform gamma-2 (Homo sapiens);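 further: values are mean inhibition figures reported as part of the GSK PKIS dataset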
DETAILS: at 0.1 µM

CPD_SMILES: COC(=O)Nc1nc2cc(Oc3ccc(NC(=O)Nc4ccccc4)cc3)ccc2[nH]1
RESULT_UNITS: %
inhibition: 2.17

CPD_SMILES: COc1ccc2ncn(-c3cc(O[C@H](C)c4ccccc4C(F)(F)F)c(C(N)=O)s3)c2c1
RESULT_UNITS: %
inhibition: -0.92

CPD_SMILES: FC(F)(F)CNc1nccc(-c2cnn3ncccc23)n1
RESULT_UNITS: %
inhibition: 3.35

CPD_SMILES: NC(=O)c1ccc2c(-c3ccnc(NCCCO)n3)c(-c3ccc(F)cc3)nn2c1
RESULT_UNITS: %
inhibition: 5.87

CPD_SMILES: Cc1nnc(-c2cccc(-c3ccc(C(=O)NCC4CC4)cc3)c2)o1
RESULT_UNITS: %
inhibition: 2.71

###

SYSTEM: Receptor tyrosine-protein kinase erbB-4 (Homo sapiens) (UniProt Q15303)
Sequence (Q15303 whole entry): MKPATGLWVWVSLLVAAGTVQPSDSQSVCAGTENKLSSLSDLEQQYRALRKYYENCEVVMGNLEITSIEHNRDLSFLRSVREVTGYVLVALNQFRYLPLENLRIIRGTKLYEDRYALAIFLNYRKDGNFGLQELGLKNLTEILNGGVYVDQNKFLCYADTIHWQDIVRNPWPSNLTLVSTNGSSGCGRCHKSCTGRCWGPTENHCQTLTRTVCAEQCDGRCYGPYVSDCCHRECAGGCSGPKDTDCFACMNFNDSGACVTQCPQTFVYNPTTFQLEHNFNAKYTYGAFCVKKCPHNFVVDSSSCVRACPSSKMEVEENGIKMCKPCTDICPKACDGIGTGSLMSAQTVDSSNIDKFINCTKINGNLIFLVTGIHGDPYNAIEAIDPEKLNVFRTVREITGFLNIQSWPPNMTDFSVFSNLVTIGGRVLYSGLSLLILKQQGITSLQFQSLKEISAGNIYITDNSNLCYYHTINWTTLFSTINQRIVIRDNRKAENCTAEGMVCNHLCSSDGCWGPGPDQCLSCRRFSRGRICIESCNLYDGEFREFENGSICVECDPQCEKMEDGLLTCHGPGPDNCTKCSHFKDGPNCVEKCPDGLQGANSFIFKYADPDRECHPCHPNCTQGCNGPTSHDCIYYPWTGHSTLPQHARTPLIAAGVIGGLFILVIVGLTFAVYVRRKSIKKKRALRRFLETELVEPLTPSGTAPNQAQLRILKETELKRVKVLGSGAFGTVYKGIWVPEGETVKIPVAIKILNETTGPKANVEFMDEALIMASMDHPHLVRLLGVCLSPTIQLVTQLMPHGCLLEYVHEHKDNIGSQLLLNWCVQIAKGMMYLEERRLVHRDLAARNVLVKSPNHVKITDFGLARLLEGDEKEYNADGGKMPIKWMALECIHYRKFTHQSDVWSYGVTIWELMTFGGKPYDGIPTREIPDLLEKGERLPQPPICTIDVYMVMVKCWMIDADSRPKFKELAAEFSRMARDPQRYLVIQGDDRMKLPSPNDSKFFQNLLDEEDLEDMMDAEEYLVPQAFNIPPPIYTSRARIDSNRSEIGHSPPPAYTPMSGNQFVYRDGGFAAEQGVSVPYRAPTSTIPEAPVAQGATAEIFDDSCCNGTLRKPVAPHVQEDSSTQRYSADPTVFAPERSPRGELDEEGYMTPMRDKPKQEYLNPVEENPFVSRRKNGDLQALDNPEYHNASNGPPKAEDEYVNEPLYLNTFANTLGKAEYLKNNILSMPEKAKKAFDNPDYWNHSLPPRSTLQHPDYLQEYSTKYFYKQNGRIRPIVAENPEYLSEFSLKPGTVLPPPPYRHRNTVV
DETAILS: at 0.1 µM
Measured inhibition, listed per entry for reference.

CPD_SMILES: Fc1cccc(COc2ccc(Nc3ncncc3C#Cc3ccccc3)cc2Cl)c1
SYSTEM: Receptor tyrosine-protein kinase erbB-4 (Homo sapiens) (UniProt Q15303)
RESULT_UNITS: %
inhibition: 9.32
//
CPD_SMILES: CNC(=O)c1sc(-n2cnc3cc(OC)c(OC)cc32)cc1OCc1ccccc1C(F)(F)F
SYSTEM: Receptor tyrosine-protein kinase erbB-4 (Homo sapiens) (UniProt Q15303)
RESULT_UNITS: %
inhibition: 6.92
//
CPD_SMILES: CS(=O)(=O)Nc1ccc(-c2cc(-c3ccccc3)cc(C(N)=O)c2N)cc1
SYSTEM: Receptor tyrosine-protein kinase erbB-4 (Homo sapiens) (UniProt Q15303)
RESULT_UNITS: %
inhibition: 4.73
//
CPD_SMILES: N#Cc1ccc2c(-c3ccnc(NC4CC4)n3)c(-c3ccc(F)cc3)nn2c1
SYSTEM: Receptor tyrosine-protein kinase erbB-4 (Homo sapiens) (UniProt Q15303)
RESULT_UNITS: %
inhibition: 5.5
//
CPD_SMILES: COc1c(C(N)=O)cc(-c2ccc(Cl)cc2)cc1-c1ccc(S(N)(=O)=O)cc1
SYSTEM: Receptor tyrosine-protein kinase erbB-4 (Homo sapiens) (UniProt Q15303)
RESULT_UNITS: %
inhibition: 7.58
//
CPD_SMILES: COc1ccc(-c2nn3ncccc3c2-c2ccnc(Nc3ccc(F)c(F)c3)n2)cc1
SYSTEM: Receptor tyrosine-protein kinase erbB-4 (Homo sapiens) (UniProt Q15303)
RESULT_UNITS: %
inhibition: 27.1
//
CPD_SMILES: COc1ccc(Nc2ncc(-c3ccccc3)o2)cc1OC
SYSTEM: Receptor tyrosine-protein kinase erbB-4 (Homo sapiens) (UniProt Q15303)
RESULT_UNITS: %
inhibition: 6.4
//
CPD_SMILES: CS(=O)(=O)CCNCc1ccc(-c2ccc3ncnc(Nc4ccc(OCc5cccc(C(F)(F)F)c5)cc4)c3c2)o1
SYSTEM: Receptor tyrosine-protein kinase erbB-4 (Homo sapiens) (UniProt Q15303)
RESULT_UNITS: %
inhibition: 7.3
//
CPD_SMILES: COc1cc2c(cc1Nc1nc(Nc3cccc(F)c3C(N)=O)c3cc[nH]c3n1)N(C(=O)CN1CCN(C(C)C)CC1)CC2
SYSTEM: Receptor tyrosine-protein kinase erbB-4 (Homo sapiens) (UniProt Q15303);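 further: values are averaged percent inhibition of ERBB4 kinase activity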
RESULT_UNITS: %
inhibition: 16.9

###

Measured inhibition, listed per entry for reference.
SYSTEM: Hepatocyte growth factor receptor (Homo sapiens) (UniProt P08581);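 further: reported values are means of MET inhibition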
Sequence (P08581 whole entry): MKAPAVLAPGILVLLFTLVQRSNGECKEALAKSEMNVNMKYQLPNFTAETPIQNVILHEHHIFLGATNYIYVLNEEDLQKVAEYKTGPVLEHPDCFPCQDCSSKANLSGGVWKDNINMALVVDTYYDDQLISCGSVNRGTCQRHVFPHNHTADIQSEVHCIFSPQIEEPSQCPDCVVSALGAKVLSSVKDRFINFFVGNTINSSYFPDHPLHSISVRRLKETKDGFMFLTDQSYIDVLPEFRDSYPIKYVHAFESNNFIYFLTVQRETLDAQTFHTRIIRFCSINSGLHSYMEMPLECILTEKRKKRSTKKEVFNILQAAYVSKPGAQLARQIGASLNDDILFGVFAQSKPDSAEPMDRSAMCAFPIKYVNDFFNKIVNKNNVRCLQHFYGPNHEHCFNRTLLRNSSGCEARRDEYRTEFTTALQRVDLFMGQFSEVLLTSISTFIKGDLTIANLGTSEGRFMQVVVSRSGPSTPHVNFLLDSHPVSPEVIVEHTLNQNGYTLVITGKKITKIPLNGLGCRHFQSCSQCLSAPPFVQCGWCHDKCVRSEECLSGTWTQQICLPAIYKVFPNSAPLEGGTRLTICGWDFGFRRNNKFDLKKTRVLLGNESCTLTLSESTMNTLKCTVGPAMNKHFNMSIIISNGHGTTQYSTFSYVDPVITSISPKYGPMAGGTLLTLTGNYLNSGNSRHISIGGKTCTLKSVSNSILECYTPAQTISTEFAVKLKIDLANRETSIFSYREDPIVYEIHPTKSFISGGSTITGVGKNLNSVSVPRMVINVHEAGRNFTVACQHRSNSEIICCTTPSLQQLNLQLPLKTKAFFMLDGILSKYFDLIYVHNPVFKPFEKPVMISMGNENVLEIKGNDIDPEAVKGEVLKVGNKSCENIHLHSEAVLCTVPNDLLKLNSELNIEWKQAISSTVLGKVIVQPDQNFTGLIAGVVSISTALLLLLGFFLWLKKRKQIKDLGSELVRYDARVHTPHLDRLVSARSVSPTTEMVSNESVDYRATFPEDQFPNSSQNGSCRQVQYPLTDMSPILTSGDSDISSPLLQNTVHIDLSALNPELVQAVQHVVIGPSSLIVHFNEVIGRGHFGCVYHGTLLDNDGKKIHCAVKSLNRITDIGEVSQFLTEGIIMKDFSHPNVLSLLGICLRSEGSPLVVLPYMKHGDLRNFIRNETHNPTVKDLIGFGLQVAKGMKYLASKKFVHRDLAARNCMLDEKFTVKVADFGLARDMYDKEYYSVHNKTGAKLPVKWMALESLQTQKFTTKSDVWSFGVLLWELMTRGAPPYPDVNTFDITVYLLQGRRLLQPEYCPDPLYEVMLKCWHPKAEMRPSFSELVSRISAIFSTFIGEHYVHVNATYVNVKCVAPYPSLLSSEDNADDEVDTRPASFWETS
DETAILS: at 0.1 µM
OBSERVATION_TYPE: inhibition (%)

CPD_SMILES: COC(=O)Nc1nc2cc(Oc3ccc(NC(=O)Nc4ccccc4)cc3)ccc2[nH]1
OBSERVATION_TYPE: inhibition
RESULT_UNITS: %
OBS_VALUE: 2.87

CPD_SMILES: COc1cccc(-n2ncc3c(N/N=C/c4ccc(C(=O)NCCN(C)C)cc4)ncnc32)c1
OBSERVATION_TYPE: inhibition
RESULT_UNITS: %
OBS_VALUE: 12.9

CPD_SMILES: NS(=O)(=O)c1cccc(N/C=C2\C(=O)Nc3ccccc32)c1
OBSERVATION_TYPE: inhibition
RESULT_UNITS: %
OBS_VALUE: 4.45

CPD_SMILES: NS(=O)(=O)c1ccc(N/N=C2\C(=O)Nc3ccc(C(=O)NCc4ccncc4)cc32)cc1
OBSERVATION_TYPE: inhibition
RESULT_UNITS: %
OBS_VALUE: 5.14

CPD_SMILES: CS(=O)(=O)CCNCc1ccc(-c2ccc3ncnc(Nc4ccc(OCc5ccccc5)cc4)c3c2)o1
OBSERVATION_TYPE: inhibition
RESULT_UNITS: %
OBS_VALUE: -0.6

###

SYSTEM: Tyrosine-protein kinase JAK1 (Homo sapiens)
DETAILS: at 0.1 µM
Description: GSK_PKIS: JAK1 mean inhibition at 0.1 uM [Nanosyn]
Measured inhibition, listed per entry for reference.

CPD_SMILES: OCCCNc1nccc(-c2c(-c3ccc(F)cc3)nn3cc(C(F)(F)F)ccc23)n1
RESULT_UNITS: %
inhibition: -0.95
//
CPD_SMILES: Fc1ccc(Nc2nccc(-c3c(-c4ccc(C(F)(F)F)cc4)nn4ncccc34)n2)cc1F
RESULT_UNITS: %
inhibition: 2.03
//
CPD_SMILES: NS(=O)(=O)c1ccc(N/N=C2\C(=O)Nc3cccc(CCc4ccncc4)c32)cc1
RESULT_UNITS: %
inhibition: -0.35
//
CPD_SMILES: NS(=O)(=O)c1cccc(N/C=C2\C(=O)Nc3ccccc32)c1
RESULT_UNITS: %
inhibition: 2.83
//
CPD_SMILES: COc1c(C(N)=O)cc(-c2ccc(Cl)cc2)cc1-c1ccc(S(N)(=O)=O)cc1
RESULT_UNITS: %
inhibition: 1.1
//
CPD_SMILES: CS(=O)(=O)CCNCc1ccc(-c2ccc3ncnc(Nc4ccc(OCc5ccccc5)cc4)c3c2)o1
RESULT_UNITS: %
inhibition: 6.4
//
CPD_SMILES: NC(=O)c1ccc2c(-c3ccnc(NCCCO)n3)c(-c3ccc(F)cc3)nn2c1
RESULT_UNITS: %
inhibition: 0.15
//
CPD_SMILES: CNC(=O)c1cncc(/C=C/c2ccccc2C)c1
RESULT_UNITS: %
inhibition: 6.31
//
CPD_SMILES: NS(=O)(=O)c1ccc(N/N=C2\C(=O)Nc3ccc(C(=O)NCc4ccncc4)cc32)cc1
RESULT_UNITS: %
inhibition: 3.77
//
CPD_SMILES: COc1ccc(-c2nn3ncccc3c2-c2ccnc(Nc3ccc(F)c(F)c3)n2)cc1
RESULT_UNITS: %
inhibition: 3.71

###

SYSTEM: Tyrosine-protein kinase TXK (Homo sapiens);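 further: each listed value is a mean percent inhibition of TXK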
Sequence (whole entry): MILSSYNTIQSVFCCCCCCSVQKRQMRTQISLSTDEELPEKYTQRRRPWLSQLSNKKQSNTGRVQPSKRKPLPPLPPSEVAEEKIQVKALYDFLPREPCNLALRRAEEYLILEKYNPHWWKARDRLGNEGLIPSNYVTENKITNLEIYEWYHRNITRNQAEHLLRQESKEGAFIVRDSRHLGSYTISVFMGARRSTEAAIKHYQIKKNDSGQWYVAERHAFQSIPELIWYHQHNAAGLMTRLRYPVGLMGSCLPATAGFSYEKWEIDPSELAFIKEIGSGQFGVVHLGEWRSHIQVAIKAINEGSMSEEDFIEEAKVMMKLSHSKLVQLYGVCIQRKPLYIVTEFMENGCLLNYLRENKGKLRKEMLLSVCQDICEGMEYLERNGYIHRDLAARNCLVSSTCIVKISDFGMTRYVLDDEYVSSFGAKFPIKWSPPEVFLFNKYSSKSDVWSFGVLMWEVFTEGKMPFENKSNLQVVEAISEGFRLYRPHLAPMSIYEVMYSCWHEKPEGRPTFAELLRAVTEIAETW
DETAILS: at 0.1 µM

CPD_SMILES: CCS(=O)(=O)c1ccc(OC)c(Nc2ncc(-c3cccc(F)c3)o2)c1
inhibition (%): 17.2
//
CPD_SMILES: COc1cc2c(cc1Nc1nc(Nc3cccc(F)c3C(N)=O)c3cc[nH]c3n1)N(C(=O)CN1CCN(C(C)C)CC1)CC2
inhibition (%): 7.39
//
CPD_SMILES: NS(=O)(=O)c1ccc(N/N=C2\C(=O)Nc3ccc(C(=O)NCc4ccncc4)cc32)cc1
inhibition (%): 2.66
//
CPD_SMILES: NS(=O)(=O)c1cccc(N/C=C2\C(=O)Nc3ccccc32)c1
inhibition (%): 4.29
//
CPD_SMILES: FC(F)(F)CNc1nccc(-c2cnn3ncccc23)n1
inhibition (%): -0.11
//
CPD_SMILES: Fc1cccc(COc2ccc(Nc3ncncc3C#Cc3ccccc3)cc2Cl)c1
inhibition (%): 1.94
//
CPD_SMILES: O=C(O[C@H]1CN[C@H](C#Cc2cc3ncnc(Nc4ccc5c(cnn5Cc5ccccc5)c4)c3s2)C1)N1CCOCC1
inhibition (%): 0.8
//
CPD_SMILES: COc1ccccc1-c1cc(/C=C2\C(=O)Nc3ncc(Br)cc32)cc(Br)c1O
inhibition (%): 3.05
//
CPD_SMILES: CN(c1ccc(NC(=O)NCCN2CCOCC2)cc1)c1ccnc(Nc2ccc(CS(C)(=O)=O)cc2)n1
inhibition (%): 16.9
//
CPD_SMILES: O=C1Nc2ccccc2/C1=C1\CCc2cc(O)ccc21
inhibition (%): 2.88
//
CPD_SMILES: COc1ccc(-c2nn3ncccc3c2-c2ccnc(Nc3ccc(F)c(F)c3)n2)cc1
inhibition (%): 2.4
//
CPD_SMILES: CS(=O)(=O)CCNCc1ccoc1-c1ccc2ncnc(Nc3ccc(OCc4ccccc4)cc3)c2c1
inhibition (%): 0.41
//
CPD_SMILES: OCCCNc1nccc(-c2c(-c3ccc(F)cc3)nn3cc(C(F)(F)F)ccc23)n1
inhibition (%): 4.77
//
CPD_SMILES: CC1(C)CC(n2cnc(-c3ccc(F)cc3)c2-c2ccnc(N)n2)CC(C)(C)N1
inhibition (%): 0.09
//
CPD_SMILES: CS(=O)(=O)CCNCc1ccc(-c2ccc3ncnc(Nc4ccc(OCc5ccccc5)cc4)c3c2)o1
inhibition (%): 0.48
//
CPD_SMILES: O=C(Nc1n[nH]c2nnc(-c3cccnc3)cc12)C1CC1
inhibition (%): 0.3
//
CPD_SMILES: CNC(=O)c1sc(-n2cnc3cc(OC)c(OC)cc32)cc1OCc1ccccc1C(F)(F)F
inhibition (%): 5.54
//
CPD_SMILES: COc1cc(Nc2ncc(-c3ccccc3)o2)cc(OC)c1
inhibition (%): -1
//
CPD_SMILES: Cc1nnc(-c2cccc(-c3ccc(C(=O)NCC4CC4)cc3)c2)o1
inhibition (%): 2.44
//
CPD_SMILES: CCS(=O)(=O)c1ccc(OC)c(Nc2ncc(-c3cccc(C(C)=O)c3)o2)c1
inhibition (%): 13
//
CPD_SMILES: CN(C)CCNC(=O)Nc1ccc(N(C)c2ccnc(Nc3ccc(CS(C)(=O)=O)cc3)n2)cc1
inhibition (%): 8.39
//
CPD_SMILES: COc1c(C(N)=O)cc(-c2ccc(Cl)cc2)cc1-c1ccc(S(N)(=O)=O)cc1
inhibition (%): 9.73
//
CPD_SMILES: CS(=O)(=O)CCNCc1ccc(-c2ccc3ncnc(Nc4ccc(OCc5cccc(C(F)(F)F)c5)cc4)c3c2)o1
inhibition (%): 5.9
//
CPD_SMILES: Fc1ccc(Nc2nccc(-c3c(-c4ccc(C(F)(F)F)cc4)nn4ncccc34)n2)cc1F
inhibition (%): 2.95
//
CPD_SMILES: CN1CCC(n2cnc(-c3ccc(F)cc3)c2-c2ccnc(NCCO)n2)CC1
inhibition (%): 2.5
//
CPD_SMILES: COc1cccc(-n2ncc3c(N/N=C/c4ccc(C(=O)NCCN(C)C)cc4)ncnc32)c1
inhibition (%): 7.49
//
CPD_SMILES: O=C(O[C@H]1CN[C@H](C#Cc2cc3ncnc(Nc4ccc(OCc5cccc(F)c5)c(Cl)c4)c3s2)C1)N1CCOCC1
inhibition (%): 1.89
//
CPD_SMILES: Cc1cc(O)cc(C)c1/C=C/c1cncc(C(N)=O)c1
inhibition (%): 5.98
//
CPD_SMILES: CCn1c(-c2nonc2N)nc2cncc(C(=O)NCCNC)c21
inhibition (%): -1.02
//
CPD_SMILES: CCN1CCC(C(=O)Nc2n[nH]c3nnc(-c4cccc(F)c4F)cc23)CC1
inhibition (%): -0.15
//
CPD_SMILES: NC(=O)c1ccc2c(-c3ccnc(NCCCO)n3)c(-c3ccc(F)cc3)nn2c1
inhibition (%): 9.73
//
CPD_SMILES: Cc1c2ccc(N(C)c3ccnc(Nc4cccc(S(N)(=O)=O)c4)n3)cc2nn1C
inhibition (%): 20.5
//
CPD_SMILES: CC(C)c1ccc(-c2cc(-c3c[nH]nc3-c3ccccn3)ccn2)cc1
inhibition (%): 2.1
//
CPD_SMILES: COc1cccc(Nc2nccc(-c3cnn4ncccc34)n2)c1
inhibition (%): 2.32
//
CPD_SMILES: Cc1ccc(-c2cc3c(NC(=O)C4CC4)ncnc3o2)cc1
inhibition (%): 3.92
